The variants listed here are annotated with their yeast fitness.
B1: tRNA (parent)
chain: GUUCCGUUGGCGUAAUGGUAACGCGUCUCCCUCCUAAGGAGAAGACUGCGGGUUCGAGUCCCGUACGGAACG

variants of: B1; test: yeast fitness relative to wild type (ratio to wild type); higher = fitter; tRNA-Arg(CCU), competitive growth, 37 C, YPD
Variants at the floor of the assay were thinned out.
quantity: yeast fitness

1) C33G C34U U53C : 0.577
2) A40C G68C : 0.641
3) C24U G25A C30U : 0.684
4) U28C C34U : 0.71
5) G52A G63A : 0.546
6) C55G C60A : 0.536
7) A20G A40U : 0.92
8) C5U A45U : 1.01
9) G44C A70C : 0.927
10) G56A A70U : 0.918
11) C5G G51C U54A A69U : 0.562
12) G12A C22G C29G C30U A36U U47C : 0.571
13) G23A A43U C62U : 0.751
14) A20U A70G : 0.918
15) C5G A43G A70G : 0.537
16) G9C C27U A36G A42U : 0.76
17) U28A C34U A40U A45U C60A : 0.706
18) G9C C62A : 0.576
19) U26A G68C A69G : 0.572
20) G12C U19A C27G A65C : 0.557
21) G12A G39C : 0.896
22) U8A C61A : 0.753
